From: the nanobody polyreactivity screen of Harvey et al. (2022)

assay: yeast display, Sf9 membrane polyspecificity reagent, FACS + sequencing; frameworks hold sequencing errors
reported.endpoint: polyreactivity (PSR sort gate)

seq_string=QVQLVESGGGLVQAGCSVRLSCAATGSSFVDNAMGWYRQAPGKERELVAANDGSADSTYYADSVKGRFTISRDNAKNTVYLQLNSLKPEATAVYYCAAVDYWTKFDYWGQGTQVTVSS result="low polyreactivity"
seq_string=QVQLVDSRGGLVQAGGSLRLSCAASGSTFVNYAMGWYRQAPGKAWELVAAITANGGRTYYADSVKGRFTISRDNAKNTVYLQMNSLKPEDTAVYYCNTESNLYRRRRNYWGQGTQVTVSS result="low polyreactivity"
seq_string=QVQLVESGGGLVQAGGSLRLSCAASGSIIFNNAMGWYRQAPGKERELVAAITTGGSTYYADSVKGRFTISRDNAKNTVYLQMNSLKPEDTAVYYCAAVVVYPYRLGYDYWGQGTQVTVSS result="low polyreactivity"
